- Tested on: SpTbr T-box DNA-binding domain (GST fusion);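 note: protein at 200 nM in PBS on universal double-stranded arrays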
- Sequence: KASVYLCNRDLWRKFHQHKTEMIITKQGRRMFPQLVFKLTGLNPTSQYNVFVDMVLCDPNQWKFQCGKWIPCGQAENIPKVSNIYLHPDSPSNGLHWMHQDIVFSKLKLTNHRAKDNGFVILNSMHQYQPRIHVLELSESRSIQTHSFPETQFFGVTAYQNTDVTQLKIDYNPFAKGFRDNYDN
- procedure.details: PBM E-score of 8-mer (E-score (dimensionless, -0.5 to 0.5)); higher = stronger binding preference
- conditions: the construct has about 5 more residues each side
The full ranking holds about 33,000 sequences; the median of “E-score (dimensionless, -0.5 to 0.5)” is about -0.046, and the highest 2% start at about 0.36. Shown is part of a subset that was picked to be rich in the highest values.
quantity.measured: PBM E-score of 8-mer
One number for each entry.

Consider the worked cases shown below.
Query :: Could you please provide reported PBM E-score of 8-mer for GCCGGTCC ? Thanks!
Result :: -0.235

Query :: Could you please provide reported PBM E-score of 8-mer for CGGTCAGC ? Thanks!
Result :: -0.186

Query :: Could you please provide reported PBM E-score of 8-mer for CACTTCAA ? Thanks!
Result :: 0.213

Query :: Could you please provide reported PBM E-score of 8-mer for ATGTGACG ? Thanks!
Result :: 0.285

Query :: Could you please provide reported PBM E-score of 8-mer for CTCTGACA ? Thanks!
Result :: 0.233

Required: PBM E-score of 8-mer, one value per sequence below.
1. TCCACGGA
2. GCCTGCAA
3. GTGTGACA
4. CTGTGACA
5. AACAATGC
6. GCGGAGAA

Result ::
-0.0375
-0.0777
0.457
0.31
-0.018
0.059

----------
- System: SpTbr T-box DNA-binding domain (GST fusion);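 note: protein at 200 nM in PBS on universal double-stranded arrays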
- Sequence: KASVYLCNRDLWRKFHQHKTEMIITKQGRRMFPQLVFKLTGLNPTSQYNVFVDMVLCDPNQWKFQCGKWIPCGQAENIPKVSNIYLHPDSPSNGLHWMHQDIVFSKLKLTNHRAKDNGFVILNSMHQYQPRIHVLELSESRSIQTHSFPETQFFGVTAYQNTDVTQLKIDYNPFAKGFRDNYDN
- procedure.details: PBM E-score of 8-mer (E-score (dimensionless, -0.5 to 0.5)); higher = stronger binding preference
- conditions: target sequence: T-box / the construct has about 5 more residues each side
In all, about 33,000 sequences were measured (“E-score (dimensionless, -0.5 to 0.5)”: median about -0.046, highest 2% from about 0.36 on). The full list was thinned out, with the highest values kept by preference.
Assign PBM E-score of 8-mer to each entry below.
Numbers only.

Query :: Could you please provide reported PBM E-score of 8-mer for TGGGGTAA ? Thanks!
Result :: -0.16

Query :: Could you please provide reported PBM E-score of 8-mer for CAGTAACC ? Thanks!
Result :: 0.048

Query :: Could you please provide reported PBM E-score of 8-mer for CGACGCGA ? Thanks!
Result :: 0.159

Required: PBM E-score of 8-mer, one value per sequence below.
1. AACTTTCG
2. ACGCCCAT
3. GGTAGCTA
4. CCTCGCGA
5. ATGGGCCG

Result ::
0.00917
0.0516
-0.314
0.306
-0.31

Required: PBM E-score of 8-mer, one value per sequence below.
1. AACTTCAC
2. ATCGAGGC
3. ATGACCTA

Result ::
1. 0.147
2. -0.0694
3. -0.132

Required: PBM E-score of 8-mer, one value per sequence below.
1. ACTTGTAC
2. TCGTAGCA
3. GGTCGATA
4. AGAGGGCC
5. ACTCGCGA
6. ACCACAAT
7. GTTCGCCA
8. AGACAACG

Result ::
[-0.109, 0.128, 0.0927, -0.194, 0.382, -0.0442, 0.158, -0.0213]

Required: PBM E-score of 8-mer, one value per sequence below.
1. GACTCTCA
2. ACTCGCGC
3. CACTTCAG

Result ::
[0.0161, 0.298, 0.269]

----------
- Test system: SpTbr T-box DNA-binding domain (GST fusion);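 note: protein at 200 nM in PBS on universal double-stranded arrays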
- Sequence: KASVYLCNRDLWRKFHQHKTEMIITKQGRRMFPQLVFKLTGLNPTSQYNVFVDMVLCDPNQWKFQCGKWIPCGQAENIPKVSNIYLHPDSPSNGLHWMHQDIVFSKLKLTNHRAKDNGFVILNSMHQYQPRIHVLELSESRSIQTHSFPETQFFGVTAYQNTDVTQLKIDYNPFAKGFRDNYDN
- procedure.details: PBM E-score of 8-mer (E-score (dimensionless, -0.5 to 0.5)); higher = stronger binding preference
- conditions: target sequence: T-box / the construct has about 5 more residues each side
Over roughly 33,000 sequences, “E-score (dimensionless, -0.5 to 0.5)” has its median near -0.046; the highest 2% begin near 0.36. The list comes from a sample in which the highest values are over-represented; it also holds close analogues and randomly drawn sequences.
Rule: PBM E-score of 8-mer under 0.1 gives NO, otherwise YES.

Consider the following illustrative entries.
Query :: hey, is PBM E-score of 8-mer for this one >= 0.1? ATGTGAGG
Result :: YES

Query :: hey, is PBM E-score of 8-mer for this one >= 0.1? TAGATCCA
Result :: NO

Query :: hey, is PBM E-score of 8-mer for this one >= 0.1? CGCTTGAC
Result :: YES

New cases:
Query :: hey, is PBM E-score of 8-mer for this one >= 0.1? AGGAGTAT
Result :: NO

----------
- Tested on: SpTbr T-box DNA-binding domain (GST fusion);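 note: protein at 200 nM in PBS on universal double-stranded arrays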
- Sequence: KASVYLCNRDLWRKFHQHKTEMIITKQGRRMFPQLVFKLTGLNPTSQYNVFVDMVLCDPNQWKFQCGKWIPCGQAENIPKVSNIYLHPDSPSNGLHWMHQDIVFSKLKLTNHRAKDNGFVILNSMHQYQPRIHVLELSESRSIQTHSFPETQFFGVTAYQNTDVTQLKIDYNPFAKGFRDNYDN
- procedure.details: PBM E-score of 8-mer (E-score (dimensionless, -0.5 to 0.5)); higher = stronger binding preference
- conditions: target sequence: T-box / the construct has about 5 more residues each side
Over roughly 33,000 sequences, “E-score (dimensionless, -0.5 to 0.5)” has its median near -0.046; the highest 2% begin near 0.36. The list comes from a sample in which the highest values are over-represented; it also holds close analogues and randomly drawn sequences.
Assign PBM E-score of 8-mer to each entry below.
Numbers only.

Consider the worked cases shown below.
Query :: Could you please provide reported PBM E-score of 8-mer for CTTGACAC ? Thanks!
Result :: 0.436

Query :: Could you please provide reported PBM E-score of 8-mer for AAGGTGGC ? Thanks!
Result :: 0.372

Query :: Could you please provide reported PBM E-score of 8-mer for AACGTGTA ? Thanks!
Result :: 0.135

Query :: Could you please provide reported PBM E-score of 8-mer for ATTGACAA ? Thanks!
Result :: 0.298

Query :: Could you please provide reported PBM E-score of 8-mer for CTTGACGC ? Thanks!
Result :: 0.324

Required: PBM E-score of 8-mer, one value per sequence below.
1. CGTGCCTA
2. CAGGTGGC
3. AACGTGTG
4. CTTGACCC

Result ::
1: -0.0792; 2: 0.323; 3: 0.411; 4: -0.308

Required: PBM E-score of 8-mer, one value per sequence below.
1. GAGGTGGA
2. ATTGACAC

Result ::
1. 0.0644
2. 0.418

----------
- Tested on: SpTbr T-box DNA-binding domain (GST fusion);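 note: protein at 200 nM in PBS on universal double-stranded arrays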
- Sequence: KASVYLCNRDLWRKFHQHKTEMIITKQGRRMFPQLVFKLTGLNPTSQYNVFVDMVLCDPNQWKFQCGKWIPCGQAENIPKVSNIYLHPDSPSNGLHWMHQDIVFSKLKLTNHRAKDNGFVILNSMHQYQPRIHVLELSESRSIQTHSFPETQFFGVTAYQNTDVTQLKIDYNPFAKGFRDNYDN
- procedure.details: PBM E-score of 8-mer (E-score (dimensionless, -0.5 to 0.5)); Tbr is Tbrain of the sea star Patiria miniata (Pm) or the sea urchin Strongylocentrotus purpuratus (Sp); higher = stronger binding preference
- conditions: target sequence: T-box / the construct has about 5 more residues each side
The full ranking holds about 33,000 sequences; the median of “E-score (dimensionless, -0.5 to 0.5)” is about -0.046, and the highest 2% start at about 0.36. The entries come from a sample that favours the highest values as a whole.
quantity.measured: PBM E-score of 8-mer

Consider the worked cases shown below.
Query :: Could you please provide reported PBM E-score of 8-mer for AGGCCCGC ? Thanks!
Result :: -0.15

Query :: Could you please provide reported PBM E-score of 8-mer for CTAGGTGC ? Thanks!
Result :: 0.36

Query :: Could you please provide reported PBM E-score of 8-mer for ATAGGTGA ? Thanks!
Result :: 0.284

Required: PBM E-score of 8-mer, one value per sequence below.
1. GGTGGGGA
2. CATGTCGA

Result ::
0.248
-0.0673
